molecular target: human CDC25C (recombinant GST-CDC25) (Homo sapiens, UniProt P30307); experiment: CDC25C dephosphorylation assay with 3-O-methylfluorescein phosphate (fluorimetric); details: mean of triplicates ± SD
Sequence (P30307 whole entry): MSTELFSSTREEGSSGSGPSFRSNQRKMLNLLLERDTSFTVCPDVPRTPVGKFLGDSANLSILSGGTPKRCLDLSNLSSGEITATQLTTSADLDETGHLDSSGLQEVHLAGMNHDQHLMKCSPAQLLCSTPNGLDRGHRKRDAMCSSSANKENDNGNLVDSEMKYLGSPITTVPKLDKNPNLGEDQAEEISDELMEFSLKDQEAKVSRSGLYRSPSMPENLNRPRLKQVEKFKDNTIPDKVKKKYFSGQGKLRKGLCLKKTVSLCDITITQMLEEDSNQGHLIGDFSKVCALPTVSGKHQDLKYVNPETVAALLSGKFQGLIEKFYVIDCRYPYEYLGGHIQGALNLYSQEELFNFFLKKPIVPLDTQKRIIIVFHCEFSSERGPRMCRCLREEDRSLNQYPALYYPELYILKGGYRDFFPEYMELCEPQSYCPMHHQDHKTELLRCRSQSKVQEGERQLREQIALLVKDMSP
parameter: IC50 (µM)

>>> print(df.to_string())
                                   compound  parameter  readout_unit  experimental_value
0  CCOC1=CC(=O)C(C)=C([S@@+]([O-])c2ccc(C)cc2)C1=O       IC50            µM                5.41
1  COC1=CC(=O)[C@]2(C)CC=C3CO[C@@H](c4ccoc4)CC3[C@]2([S@@+]([O-])c2ccc(C)cc2)C1=O (stereo partly drawn)       IC50            µM                9.43
2  COC1=CC(=O)[C@]2(C)CC=C3CO[C@@H](c4ccccc4)CC3[C@]2([S@@+]([O-])c2ccc(C)cc2)C1=O (stereo partly drawn)       IC50            µM                5.76
